# credit: ChEMBL document CHEMBL4513216

# Tested on: Plasmodium berghei
# test-name: Screen against P. berghei liver stage (PbLuc), transformed with Luciferase, at 10uM
# Assay type: functional, HepG2
# condition-info: tested at 10 uM
Hit rate of the full screen: of about 69,000 compounds, about 8,600 (12%) showed an effect of 50% or more. Shown is part of a subset that was picked to be rich in strong results.
Decide using INHIBITION: a value greater than or equal to 50% is y, a smaller one is n.

Known results for compounds:
compound | classification
C[C@@H]1CN(CC(C)(C)N2CCCCC2)CC[C@@]1(O)C1CC1 | y
O=C(c1ccccn1)C1CCCN(c2nccc(CCC(F)(F)F)n2)C1 (stereo unspecified) | n
C[C@@H]1CN(CC(C)(C)N2CCOCC2)CC[C@@]1(O)C1CCOCC1 | n
CN(Cc1cccc(C#N)c1)c1ncc(C(N)=O)cc1Cl | y

Item "CN(C)[C@H]1CCCCN(C(=O)c2cccc(N3CCS(=O)(=O)CC3)c2)C1" with INHIBITION of 50% or above?
n

Is INHIBITION for "Cc1cnccc1N1CCN(c2nccc(CCC(F)(F)F)n2)CC1" at or above 50%?
y

Textbook exercise: given the entry CN(C)Cc1cnc(C2CCN(C(=O)c3cccc(F)c3)C2)[nH]1 (stereo unspecified) , state whether its INHIBITION is greater than or equal to 50%.
n

Reported INHIBITION reaches at least 50% for "CCOc1ccnc(N2CCN(C(=O)CCc3ccncc3)CC2)n1" ?
n

// inclusive: INHIBITION at least 50%? input: "C[C@@H]1CN(CC(C)(C)N2CCOCC2)C[C@@]1(O)C1CC1"
y

Does the compound "C[C@@H]1CN(CC(C)(C)N2CCCCC2)C[C@@]1(O)C1CC1" have recorded INHIBITION that is 50% or more?
n

* * *

# System: Plasmodium berghei
# test-name: Screen against P. berghei liver stage (PbLuc), transformed with Luciferase, at 10uM
# Type: functional, HepG2
# condition-info: tested at 10 uM
The campaign covered roughly 69,000 compounds. About 8,600 (12%) showed an effect of 50% or more. What follows is part of a selection rich in strong results, with near analogues and random picks from the rest.
Items are presented alongside their recorded INHIBITION.
# number only, unit % dropped from output

# annotated cases, reported INHIBITION shown
compound | tested-on | INHIBITION [%]
CCN(C)c1ncnc2c1CCN(C(=O)c1cnccn1)CC2 | Plasmodium berghei | -66
Cc1cc(C)n(NC(=O)c2ccc(Cl)cc2Cl)c(=O)c1 | Plasmodium berghei | 60.4
CN1CCN(CC2(O)CCCN(C(=O)Cc3cccc(O)c3)CC2)CC1 (configuration not stated) | Plasmodium berghei | -2.09
FC(F)(F)c1nc(NC2CCCC2)c2ccccc2n1 | Plasmodium berghei | 88.4
CCC(Nc1nc(C(F)(F)F)nc2ccccc12)C(=O)O (configuration not stated) | Plasmodium berghei | -21.3
CC(NCc1nnc2n1CCCC2)C(=O)N1CCc2sccc2C1 (configuration not stated) | Plasmodium berghei | -21.9
Cc1cc(C)n(NC(=O)c2ccccc2F)c(=O)c1 | Plasmodium berghei | 47.1
CC(C(=O)NC1CCCCC1)N1CCc2[nH]nc(C(F)(F)F)c2C1 (configuration not stated) | Plasmodium berghei | -41.7

# get_value(readout= INHIBITION, system= Plasmodium berghei) for "Cc1cc(C)n(NC(=O)c2ccccc2C)c(=O)c1"
-46.4

Give recorded INHIBITION with Plasmodium berghei for the following compound: "COCC(=O)N1CCc2cccc(S(=O)(=O)N3CCN(C)CC3)c2C1"
8.51

Lookup: INHIBITION / Plasmodium berghei / Fc1cccc(-c2c[nH]c(C3CCCN3)n2)c1 (configuration not stated)
-4.62

Give the reported INHIBITION for Cc1nccn1C1CCCN(C(=O)CCOCC(F)(F)F)C1 (configuration not stated) (system: Plasmodium berghei).
1.15
